target: Apoptosis regulator BAX (Homo sapiens, UniProt Q07812); test: Binding affinity to recombinant human full length His-tagged BAX expressed in Escherichia coli BL21 (DE3) cells preincubated for 30 min followed by FITC-BIM addition and measured after 20 mins by fluorescence polarization assay
Sequence (Q07812 whole entry): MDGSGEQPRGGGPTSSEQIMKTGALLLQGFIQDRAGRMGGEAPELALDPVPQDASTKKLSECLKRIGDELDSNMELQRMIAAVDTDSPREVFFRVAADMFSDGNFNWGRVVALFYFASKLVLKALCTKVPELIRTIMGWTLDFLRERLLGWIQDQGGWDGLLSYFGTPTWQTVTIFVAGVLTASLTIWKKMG
pEC50: −log10 of the molar value.
measuredMetric: pEC50

                                   cpdsmiles  measuredmetric  censorsymbol  numericvalue
 0  O=C(O)c1ccc(-c2csc(N3N=C(c4ccccc4)/C(=N/Nc4nccs4)C3=O)n2)cc1           pEC50             =          6.15
 1  O=C(NO)c1ccc(CNC(=O)c2ccc(-c3csc(N4N=C(c5ccccc5)/C(=N/Nc5nccs5)C4=O)n3)cc2)cc1           pEC50             =          6.41
 2  O=C(/C=C/c1ccc(CNC(=O)c2ccc(-c3csc(N4N=C(c5ccccc5)/C(=N/Nc5nccs5)C4=O)n3)cc2)cc1)NO           pEC50             =          5.65
 3  O=C(NO)c1ccc(-c2csc(N3N=C(c4ccccc4)/C(=N/Nc4nccs4)C3=O)n2)cc1           pEC50             =          6.06
 4               O=C(CCCCCCC(=O)Nc1ccccc1)NO           pEC50             <          5.00
 5  O=C(CCCCCOc1ccc(-c2csc(N3N=C(c4ccccc4)/C(=N/Nc4nccs4)C3=O)n2)cc1)NO           pEC50             =          6.03
 6  O=C(/C=C/c1ccc(COc2ccc(-c3csc(N4N=C(c5ccccc5)/C(=N/Nc5nccs5)C4=O)n3)cc2)cc1)NO           pEC50             =          6.00
 7  O=C(CCCCCCNC(=O)c1ccc(-c2csc(N3N=C(c4ccccc4)/C(=N/Nc4nccs4)C3=O)n2)cc1)NO           pEC50             =          5.94
 8  O=C(CCCCNC(=O)c1ccc(-c2csc(N3N=C(c4ccccc4)/C(=N/Nc4nccs4)C3=O)n2)cc1)NO           pEC50             =          6.14
 9  O=C(NO)c1ccc(COc2ccc(-c3csc(N4N=C(c5ccccc5)/C(=N/Nc5nccs5)C4=O)n3)cc2)cc1           pEC50             =          6.27
10  O=C(CCCCCCOc1ccc(-c2csc(N3N=C(c4ccccc4)/C(=N/Nc4nccs4)C3=O)n2)cc1)NO           pEC50             =          6.07
11  O=C(CCCCCNC(=O)c1ccc(-c2csc(N3N=C(c4ccccc4)/C(=N/Nc4nccs4)C3=O)n2)cc1)NO           pEC50             =          6.09
12  O=C(CCCCOc1ccc(-c2csc(N3N=C(c4ccccc4)/C(=N/Nc4nccs4)C3=O)n2)cc1)NO           pEC50             =          6.01
13  O=C(CCCOc1ccc(-c2csc(N3N=C(c4ccccc4)/C(=N/Nc4nccs4)C3=O)n2)cc1)NO           pEC50             =          6.14
14  O=C(CCCCCCCOc1ccc(-c2csc(N3N=C(c4ccccc4)/C(=N/Nc4nccs4)C3=O)n2)cc1)NO           pEC50             =          6.27
